Test system: IGROV1 ovarian
assay.overview: NCI-60 one-dose screen, 48 h (100 = growth as untreated, 0 = no growth, -100 = all killed)
settings: 10 µM unless noted
Compounds without any hit were thinned out: in the full panel of roughly 83,000, 20% have a hit.
Range-based classes on measured growth: low end: < 20%; middle: ≥ 20% and < 80%; high end: ≥ 80%

| record.smiles | assigned.label |
| --- | --- |
| COc1ccc(-c2cc(-c3cccnc3)nc3sc4c(=O)n(-c5ccc(C)cc5)cnc4c23)cc1OC | high end |
| O=C(Nc1cccc2c1C(=O)c1cccc(Nc3cccc4c3C(=O)c3cccc(NC(=O)c5ccccc5)c3C4=O)c1C2=O)c1ccccc1 | middle |
| CC[C@H](Nc1cc(C)nc(N)n1)c1nc2cccc(NCc3ccc(C(=O)NO)cc3)c2c(=O)n1-c1ccccc1 | low end |
| Nc1c(C(=O)Nc2cccc3c2OCCO3)sc2nc3c(cc12)CN(Cc1ccccc1)CC3 | middle |
| COc1cccc(-c2nc3sccn3c2-c2ccnc(NCCCNS(=O)(=O)c3ccccc3)c2)c1 | middle |
| CN(C)c1ccc(/C=C\C2=[N+](C)c3ccccc3C2(C)C)cc1 | low end |
| O=c1[nH]c(-c2ccccn2)nc2sc3c(c12)CCCCC3 | middle |
| COc1cc(-c2cnc3nonc3n2)c(OC)c2c1OCO2 | high end |
| CCOC(=O)c1ccc2c(c1)nc(/C=C/c1ccc(Cl)cc1)n2-c1cc(C(C)(C)C)[nH]n1 | low end |
